System Under Test: Human Fc (human)
Protocol Notes: ELISA, negative control
Items are presented alongside their recorded optical density.

Sample records with optical density:
368_F11 (antibody, V domains shown) VH: EVQLLESGGGLVQPGGSLRLSCAASGFTFSDYGMNWVRQAPGKGLEWVSGINYNGGYTSYADSVKGRFTISRDNSKNTLYLQMNSLRAEDTAVYYCARSANWHDTHLDYWGQGTLVTVSS VL: DIQMTQSPSSLSASVGDRVTITCRASQSIVSYVNWYQQKPGKAPKLVIYAATSRASGVPSRFSGSGSGTDFTLTISSLQPEDFATYYCQQSYNNPLTFGGGTKVEIK = 0.338 OD
370_A04 (antibody, V domains shown) VH: EVQLLESGGGLVQPGGSLRLSCAASGFTFDSYSMNWVRQAPGKGLEWVSGINYNGGYTSYADSVKGRFTISRDNSKNTLYLQMNSLRAEDTAVYYCARSANWHDTALDYWGQGTLVTVSS VL: DIQMTQSPSSLSASVGDRVTITCRASQSIITYLNWYQQKPGKAPKLLIYAATSRASGVPSRFSGSGSGTDFTLTISSLQPEDFATYYCQQSYDNPLTFGGGTKVEIK = 0.377 OD
370_F05 (antibody, V domains shown) VH: EVQLLESGGGLVQPGGSLRLSCAASGFTFSSYGMNWVRQAPGKGLEWVSGINYNSGYTSYADSVKGRFTISRDNSKNTLYLQMNSLRAEDTAVYYCARSANWHDTALDYWGQGTLVTVSS VL: DIQMTQSPSSLSASVGDRVTITCRASQSIVSYVNWYQQKPGKAPKLVIYAATSRASGVPSRFSGSGSGTDFTLTISSLQPEDFATYYCQQSYETPLTFGGGTKVEIK = 0.406 OD

Could you share which optical density value was measured for 370_C08 (antibody, V domains shown) VH: EVQLLESGGGLVQPGGSLRLSCAASGFTFSSYGMNWVRQAPGKGLEWVAGINYNGGYKGYADSVKGRFTISRDNSKNTLYLQMNSLRAEDTAVYYCARSANWHDTALDYWGQGTLVTVSS VL: DIQMTQSPSSLSASVGDRVTITCRASQSISNYLNWYQQKPGKAPKLLIYAVTSRASGVPSRFSGSGSGTDFTLTISSLQPEDFATYYCQQSYDSPLTFGGGTKVEIK ?
0.381 OD

Try this binder next: 372_B04 (antibody, V domains shown) VH: EVQLLESGGGLVQPGGSLRLSCAASGFTFDSYGMNWVRQAPGKGLEWVANINYNGGYTSYADSVKGRFTISRDNSKNTLYLQMNSLRAEDTAVYYCARSANWHDTALDYWGQGTLVTVSS VL: DIQMTQSPSSLSASVGDRVTITCRASQSILSYVNWYQQKPGKAPKLVIYAATSLASGVPSRFSGSGSGTDFTLTISSLQPEDFATYYCQQSYDSPLTFGGGTKVEIK
0.333 OD
